Assay text: Caco-2 homogenate S9 stability
Type: in vitro ADME
Cond: Caco-2 homogenate S9 0.5 mg protein per mL, substrate 5.0 μM, 37° C.
Could you label it 1 if measured % of Propofol Released from Propofol Prodrugs after 60 min, Caco-2 S9 is 30% or higher, and -1 otherwise?

As a guide, the following entries are already answered.
CSCCC(N)C(=O)NC(C(=O)O)C(C)OC(=O)Oc1c(C(C)C)cccc1C(C)C.Cl (centres unmarked) [(27)] : -1
CC(C)c1cccc(C(C)C)c1OC(=O)OC(C)C(NC(=O)C(N)CCCN=C(N)N)C(=O)O.Cl.Cl.Cl (centres unmarked) [(23)] : 1
CC(C)c1cccc(C(C)C)c1OC(=O)OC(C)C(NC(=O)C(N)CCCN)C(=O)O.Cl.Cl (centres unmarked) [(28)] : 1
CC(C)c1cccc(C(C)C)c1OC(=O)OC(C)C(NC(=O)C(N)CN)C(=O)O.Cl.Cl (centres unmarked) [(24)] : -1
CC(C)c1cccc(C(C)C)c1OC(=O)OC(C)C(NC(=O)C(N)Cc1cnc[nH]1)C(=O)O.Cl.Cl (centres unmarked) [(25)] : 1
CC(C)c1cccc(C(C)C)c1OC(=O)OC(C)C(NC(=O)C(N)CCCCN)C(=O)O.Cl.Cl (centres unmarked) [(18)] : 1

We now examine a further compound.
Problem: Quick check, % of Propofol Released from Propofol Prodrugs after 60 min, Caco-2 S9 >= 30%? CC(C)CC(N)C(=O)NC(C(=O)O)C(C)OC(=O)Oc1c(C(C)C)cccc1C(C)C.Cl (centres unmarked) [(26)]
Solution: 1

====

System: pancreatin
Cond: 1% (w/v) pancreatin, substrate 5.0 μM, pH 7.5, 37° C.
Can you tell me % of Propofol Released from Propofol Prodrugs after 60 min, Pancreatin for the items I'm about to list?
One number for each entry, in %.

CC(C)CC(N)C(=O)NC(C(=O)O)C(C)OC(=O)Oc1c(C(C)C)cccc1C(C)C.Cl (stereo not shown) [(26)] : 30
CC(C)c1cccc(C(C)C)c1OC(=O)OC(C)C(NC(=O)C(N)CN)C(=O)O.Cl.Cl (stereo not shown) [(24)] : 0

Quick one: give me % of Propofol Released from Propofol Prodrugs after 60 min, Pancreatin for each item below, same order please.
1. CC(C)c1cccc(C(C)C)c1OC(=O)OC(C)C(NC(=O)CN)C(=O)O (stereo not shown) [(10), H-Gly-Thr(γ-OC(O)OPropofol)-OH]
2. CC(C)c1cccc(C(C)C)c1OC(=O)OC(C)C(NC(=O)C(N)CCCN)C(=O)O.Cl.Cl (stereo not shown) [(28)]

Solution:
1. 43
2. 0

====

System: pancreatin
Cond: 1% (w/v) pancreatin, substrate 5.0 μM, pH 7.5, 37° C.
Quantity name: % of Propofol Released from Propofol Prodrugs after 60 min, Pancreatin (%)
Answers are plain numbers, in %.

CC(C)c1cccc(C(C)C)c1OC(=O)OC(C)C(NC(=O)C(N)CCCN=C(N)N)C(=O)O.Cl.Cl.Cl (stereo not shown) : 4
CSCCC(N)C(=O)NC(C(=O)O)C(C)OC(=O)Oc1c(C(C)C)cccc1C(C)C.Cl (stereo not shown) : 0
CC(C)c1cccc(C(C)C)c1OC(=O)OC(C)C(NC(=O)C(N)Cc1cnc[nH]1)C(=O)O.Cl.Cl (stereo not shown) : 0

Please look at the following compound next.
Problem: What value of measured % of Propofol Released from Propofol Prodrugs after 60 min, Pancreatin is listed for CC(C)c1cccc(C(C)C)c1OC(=O)OC(C)C(NC(=O)C(N)CCCCN)C(=O)O.Cl.Cl (stereo not shown) ?
Solution: 1

====

Cond: substrate 2.0 μM, NADPH, 37° C.
Experimental: The stability of propofol prodrugs were evaluated in one or more in vitro systems using a variety of tissue preparations following methods known in the art. […] Samples were then centrifuged and analyzed by LC/MS/MS (see Example 134 below for method details). Stability of drug conjugates towards specific enzymes (e.g., peptidases, etc.) were also assessed in vitro by incubation with the purified enzyme.
Quantity name: % of Propofol Released from Propofol Prodrugs after 60 min, Human Liver S9 (0.5 mg/mL)
The reply should read as a number followed by its unit.

Answered examples (5):
CSCCC(N)C(=O)NC(C(=O)O)C(C)OC(=O)Oc1c(C(C)C)cccc1C(C)C.Cl (centres unmarked) : 0%
CC(C)c1cccc(C(C)C)c1OC(=O)OC(C)C(NC(=O)C(N)CCCCN)C(=O)O.Cl.Cl (centres unmarked) : 32%
CC(C)c1cccc(C(C)C)c1OC(=O)OC(C)C(NC(=O)C(N)CCCN=C(N)N)C(=O)O.Cl.Cl.Cl (centres unmarked) : 93%
CC(C)c1cccc(C(C)C)c1OC(=O)OC(C)C(NC(=O)C(N)CN)C(=O)O.Cl.Cl (centres unmarked) : 1%
CC(C)c1cccc(C(C)C)c1OC(=O)OC(C)C(NC(=O)C(N)CCCN)C(=O)O.Cl.Cl (centres unmarked) : 11%

Consider the following items and state reported % of Propofol Released from Propofol Prodrugs after 60 min, Human Liver S9 (0.5 mg/mL) for each.
1. CC(C)c1cccc(C(C)C)c1OC(=O)OC(C)C(NC(=O)C(N)Cc1cnc[nH]1)C(=O)O.Cl.Cl (centres unmarked)
2. CC(C)CC(N)C(=O)NC(C(=O)O)C(C)OC(=O)Oc1c(C(C)C)cccc1C(C)C.Cl (centres unmarked)
3. CC(C)c1cccc(C(C)C)c1OC(=O)OC(C)C(NC(=O)CN)C(=O)O (centres unmarked)

Solution:
1. 8%
2. 37%
3. 2%
